# RUN_DESCRIPTION: Metabolic stability in liver microsomes (unknown origin) assessed as intrinsic clearance
# Assay type: ADME, Microsome
# RUN_PARAMETERS: read-out: CLH
METRIC_NAME: microsomal CLint (µL/min/mg)
Express your answer in µL/min/mg, writing the number without its unit.

**Query** I have this molecule here, `CCN(CC)CCOc1cc2ncnc(Nc3cc(OC)c(Cl)cc3Cl)c2cc1OC` , and I need its recorded microsomal CLint.
**Result** 29

====

# RUN_DESCRIPTION: Cytotoxicity against human THP1-Blue NF-kappaB cells assessed as reduction in cell viability at 1 uM measured after 72 hrs by celltiter 96 aqueous one solution cell proliferation assay
# Type: toxicity, cell-based
METRIC_NAME: Activity

COc1cc2ncnc(Nc3ccc(F)c(Cl)c3)c2cc1OCCCN1CCOCC1 ... Non-toxic
COc1cc2ncnc(Nc3ccc4scnc4c3)c2cc1OC.Cl ... Non-toxic
CCN(CC)CCOc1cc2ncnc(Nc3cc(OC)c(Cl)cc3Cl)c2cc1OC ... Non-toxic
COc1cc(Nc2ncnc3cc(OC)c(OC)cc23)c(Cl)cc1Cl ... Non-toxic
COc1cc2ncnc(Nc3ccc(Cl)c(N)c3)c2cc1OC ... Non-toxic

**Query** I have this molecule here, `COc1cc2ncnc(Nc3ccc(Cl)c(O)c3)c2cc1OC.Cl` , and I need its recorded Activity.
**Result** Non-toxic

**Query** // query: `COc1cc2ncnc(Nc3ccc(F)c(O)c3)c2cc1OC`
**Result** Non-toxic
